- Tested on: HDAC11 (Homo sapiens)
- Procedure details: HDAC11 demyristoylation of myristoyl-SHMT2 peptide in vitro
- Type: biochemical
- Particulars: read-out: IC50 against HDAC11; myristoyl-SHMT2 peptide substrate
Value type: IC50 (nM)
Numeric answer only, unit nM assumed.

Inquiry: Find IC50 (HDAC11 (Homo sapiens)) for the entry CCCCCCCCCCCCCCCCNNC(=O)c1cccs1 [SIS17]
Reply text: 270

---

- Tested on: HDAC11 (Homo sapiens, UniProt Q96DB2)
- Sequence (Q96DB2 whole entry): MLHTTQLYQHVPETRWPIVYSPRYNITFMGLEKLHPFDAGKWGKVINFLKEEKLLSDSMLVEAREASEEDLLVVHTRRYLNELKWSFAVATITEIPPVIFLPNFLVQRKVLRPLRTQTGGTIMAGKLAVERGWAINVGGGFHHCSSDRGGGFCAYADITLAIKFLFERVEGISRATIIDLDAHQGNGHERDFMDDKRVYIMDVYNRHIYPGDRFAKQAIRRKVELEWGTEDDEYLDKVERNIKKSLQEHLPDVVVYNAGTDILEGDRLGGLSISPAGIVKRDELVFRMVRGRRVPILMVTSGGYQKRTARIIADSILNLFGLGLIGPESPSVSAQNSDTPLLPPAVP
- Procedure details: HPLC-based HDAC11 assay with myristoyl-H3K9 peptide
- Assay type: biochemical
- Particulars: read-out: IC50 against HDAC11; myristoyl-H3K9 peptide substrate, HPLC assay
Value type: IC50 (nM)
Numeric answer only, unit nM assumed.

Inquiry: Look up IC50: CCCCCCCCCCCCCCCCNNC(=O)c1cccs1 [SIS17]
Reply text: 830
